# tested.on: HLA A0203 (human)
# method.description: 125I-probe competition, purified HLA
# stated.conditions: remark: other sources report otherwise
readout: IC50

Incoming: Provide IC50 value for the following binder: ILYAHIQCL (modifications not checked) [HPV18.E1.266]
Outgoing: 10.2 nM
